test system: MCF7; test: cells; details: Homo sapiens, MCF7, 48 h
// assign MET if IC50 falls strictly below 20 µM, else NOT MET (ties count as NOT MET)

(Q) Quick check: IC50 of CO[C@H]1/C=C\C=C(/C)C(=O)NC2=CC(=O)C(NCCN(C)C)=C(C[C@@H](C)C[C@H](OC)[C@H](O)[C@@H](C)/C=C(\C)[C@@H]1OC(N)=O)C2=O [ALVESPIMYCIN] under 20 µM?
(A) MET

(Q) Criterion: IC50 strictly below 20 µM. Is it met by CC(C)c1cc(C(=O)N2Cc3ccc(CN4CCN(C)CC4)cc3C2)c(O)cc1O [ONALESPIB] ?
(A) MET

(Q) Is the reported IC50 for COc1ccc(OC)c(C(=O)N2CCc3nc(N4CCN(c5ncccn5)CC4)ncc3C2)c1 strictly below 20 µM?
(A) NOT MET

(Q) Is 20 µM strictly greater than the compound's reported IC50? compound: O=C(c1ccc(F)cc1)N1CCc2nc(N3CCN(c4ncccn4)CC3)ncc2C1
(A) NOT MET

---

target: Heat shock protein HSP 90-beta (Homo sapiens, UniProt P08238); test: Displacement of FITC-geldanamycin from HSP90 (unknown origin) after 30 mins by fluorescence polarization assay
Sequence (P08238 whole entry): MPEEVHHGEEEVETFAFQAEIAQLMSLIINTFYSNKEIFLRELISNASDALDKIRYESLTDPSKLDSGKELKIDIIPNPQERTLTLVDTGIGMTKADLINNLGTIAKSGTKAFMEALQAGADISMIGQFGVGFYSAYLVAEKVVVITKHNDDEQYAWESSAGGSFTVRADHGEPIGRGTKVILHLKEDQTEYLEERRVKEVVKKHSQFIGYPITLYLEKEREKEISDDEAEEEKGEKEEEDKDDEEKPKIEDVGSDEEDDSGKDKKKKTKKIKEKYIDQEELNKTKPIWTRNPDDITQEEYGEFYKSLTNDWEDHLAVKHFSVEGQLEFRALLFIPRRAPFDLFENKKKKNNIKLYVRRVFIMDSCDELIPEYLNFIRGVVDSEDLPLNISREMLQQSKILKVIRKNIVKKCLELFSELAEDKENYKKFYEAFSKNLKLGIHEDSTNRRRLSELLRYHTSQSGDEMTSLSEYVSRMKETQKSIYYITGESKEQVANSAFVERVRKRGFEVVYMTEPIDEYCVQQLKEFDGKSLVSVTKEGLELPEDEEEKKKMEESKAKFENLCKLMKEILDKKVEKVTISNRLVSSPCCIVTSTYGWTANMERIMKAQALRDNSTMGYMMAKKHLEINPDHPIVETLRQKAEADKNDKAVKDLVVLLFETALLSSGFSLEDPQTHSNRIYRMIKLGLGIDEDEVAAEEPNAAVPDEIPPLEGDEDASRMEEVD
pIC50: −log10 of the molar value.
Assay Endpoint: pIC50

sample_smiles=COc1ccc(OC)c(CN2CCc3nc(N4CCN(c5ncccn5)CC4)ncc3C2)c1 test_system="Heat shock protein HSP 90-beta (Homo sapiens, UniProt P08238)" recorded_result=4.34
sample_smiles=Clc1ccc(CN2CCc3nc(N4CCN(c5ncccn5)CC4)ncc3C2)cc1 test_system="Heat shock protein HSP 90-beta (Homo sapiens, UniProt P08238)" recorded_result="< 4.00"

# evaluate next
(Q) Given the molecule O=C(c1ccc(F)cc1)N1CCc2nc(N3CCN(c4ncccn4)CC3)ncc2C1 , what is its reported pIC50?
(A) < 4.00

---

molecular target: Heat shock protein HSP 90-beta (Homo sapiens); assay: Displacement of FITC-geldanamycin from HSP90 (unknown origin) after 30 mins by fluorescence polarization assay
Property: log10 IC50; scope: individual compounds
Hey, these are logged values: log10 of IC50, µM being the unit before logging.

Please review the entries below; each comes with its answer.
compound=Nc1ncc2c(n1)CCN(C(=O)c1cc(Cl)c(O)cc1O)C2 recorded_result=-0.51
compound=O=C(c1ccc(O)cc1O)N1CCc2nc(N3CCN(c4ncccn4)CC3)ncc2C1 recorded_result=1.01
compound=COc1ccc(OC)c(C(=O)N2CCc3nc(N4CCN(c5ncccn5)CC4)ncc3C2)c1 recorded_result=1.61

(Q) Requested read-out: log10 IC50. Entry: CC(C)c1cc(C(=O)N2Cc3ccc(CN4CCN(C)CC4)cc3C2)c(O)cc1O [ONALESPIB]
(A) -1.52

(Q) Look up log10 IC50 for this compound: Cc1ncc2c(n1)CCN(C(=O)c1cc(Cl)c(O)cc1O)C2
(A) -1.00

(Q) I have this compound here, O=C(c1cc(Cl)c(O)cc1O)N1CCc2nc(N3CCN(c4ncccn4)CC3)ncc2C1 , and I need its recorded log10 IC50.
(A) 0.22

(Q) Request the reported log10 IC50 associated with COc1ccc(C(=O)N2CCc3nc(N4CCN(c5ncccn5)CC4)ncc3C2)c(OC)c1
(A) 1.48

---

target: Heat shock protein HSP 90-beta (Homo sapiens, UniProt P08238); experiment: Inhibition of full-length HSP90 (unknown origin) expressed in Escherichia coli assessed as inhibition of ATPase activity after 3 hrs by spectrophotometric analysis
Sorting guide: entries reporting IC50 beneath 20 µM go in the Satisfied pile, the rest go in the Not satisfied pile.

Solved entries:
compound=c1cc2c(cc1CN1CCc3nc(Nc4ccc5c(c4)OCCO5)ncc3C1)OCCO2 label="Not satisfied"
compound="CC(C)c1cc(C(=O)N2Cc3ccc(CN4CCN(C)CC4)cc3C2)c(O)cc1O [ONALESPIB]" label=Satisfied

(Q) Given the entry Nc1ncc2c(n1)CCN(C(=O)c1cc(Cl)c(O)cc1O)C2 , would its reported IC50 be below 20 µM?
(A) Satisfied

(Q) hey, is IC50 for COc1cc(OC)c(OC)cc1CN1CCc2nc(N3CCOCC3)ncc2C1 lower than 20 µM or not?
(A) Not satisfied

(Q) Input O=C(c1cc(Cl)c(O)cc1O)N1CCc2nc(N3CCN(c4ncccn4)CC3)ncc2C1 ; condition: IC50 strictly below 20 µM. Does it hold?
(A) Satisfied
